# measurement-notes: ^153 Gd biodistribution, IV study in rats
# Type: in vivo, male rats
# assay-setup: rat, IV, two hours post injection
recorded-endpoint: Ratio Bone/Muscle
Please give the numeric answer without any surrounding text.

Observe how each entry below is paired with its result.
Req: Determine from records and report Ratio Bone/Muscle for CC(O)(P(=O)(O)O)P(=O)(O)O.[Gd]
Resp: 14.07

Req: Determine from records and report Ratio Bone/Muscle for [153Gd+3].[Cl-].[Cl-].[Cl-]
Resp: 83

Req: Determine from records and report Ratio Bone/Muscle for O=P(O)(O)CN(CCN(CP(=O)(O)O)CP(=O)(O)O)CP(=O)(O)O.[Gd]
Resp: 491.2

Now look at this one.
Req: Determine from records and report Ratio Bone/Muscle for O=P(O)(O)CP(=O)(O)O.[Gd]
Resp: 80

----------
# measurement-notes: ^153 Gd biodistribution, IV study in rats
# Type: in vivo, male rats
# assay-setup: rat, IV, two hours post injection
Collected Liver & Spleen values appear next to each entry.
Value and unit, in that order.

Observe how each entry below is paired with its result.
Req: Determine from records and report Liver & Spleen for [153Gd+3].[Cl-].[Cl-].[Cl-]
Resp: 32.5 % activity per organ

Req: Determine from records and report Liver & Spleen for O=P(O)(O)CP(=O)(O)O.[Gd]
Resp: 93.9 % activity per organ

---
Req: Determine from records and report Liver & Spleen for O=P(O)(O)CN(CCN(CP(=O)(O)O)CP(=O)(O)O)CP(=O)(O)O.[Gd]
Resp: 1.4 % activity per organ

Req: Determine from records and report Liver & Spleen for CC(O)(P(=O)(O)O)P(=O)(O)O.[Gd]
Resp: 11.29 % activity per organ

----------
Collected Ratio Bone/Blood values appear next to each entry.
# measurement-notes: ^153 Gd biodistribution, IV study in rats
# Assay type: in vivo, male rats
# assay-setup: rat, IV, two hours post injection
Please give the numeric answer without any surrounding text.

Observe how each entry below is paired with its result.
Req: Determine from records and report Ratio Bone/Blood for CC(O)(P(=O)(O)O)P(=O)(O)O.[Gd] [Gd.EHDP]
Resp: 1.24

Req: Determine from records and report Ratio Bone/Blood for O=P(O)(O)CN(CCN(CP(=O)(O)O)CP(=O)(O)O)CP(=O)(O)O.[Gd] [Gd.EDTMP]
Resp: 173.0

Req: Determine from records and report Ratio Bone/Blood for [153Gd+3].[Cl-].[Cl-].[Cl-] [^153 Gd.Cl3]
Resp: 12.2

Now look at this one.
Req: Determine from records and report Ratio Bone/Blood for O=P(O)(O)CP(=O)(O)O.[Gd] [Gd.MDP]
Resp: 33.2

----------
# measurement-notes: ^153 Gd biodistribution, IV study in rats
# Type: in vivo, male rats
# assay-setup: rat, IV, two hours post injection
Collected Injection Site values appear next to each entry.
Value and unit, in that order.

Observe how each entry below is paired with its result.
Req: Determine from records and report Injection Site for CC(O)(P(=O)(O)O)P(=O)(O)O.[Gd] [Gd.EHDP]
Resp: 2.91 % activity per organ

Req: Determine from records and report Injection Site for O=P(O)(O)CN(CCN(CP(=O)(O)O)CP(=O)(O)O)CP(=O)(O)O.[Gd] [Gd.EDTMP]
Resp: 2.1 % activity per organ

Req: Determine from records and report Injection Site for O=P(O)(O)CP(=O)(O)O.[Gd] [Gd.MDP]
Resp: 0.5 % activity per organ

---
Req: Determine from records and report Injection Site for [153Gd+3].[Cl-].[Cl-].[Cl-] [^153 Gd.Cl3]
Resp: 3.4 % activity per organ
